# Target or test system: Beta-3 adrenergic receptor (Homo sapiens); also: assay procedure not described here
# Sequence (P13945 whole entry): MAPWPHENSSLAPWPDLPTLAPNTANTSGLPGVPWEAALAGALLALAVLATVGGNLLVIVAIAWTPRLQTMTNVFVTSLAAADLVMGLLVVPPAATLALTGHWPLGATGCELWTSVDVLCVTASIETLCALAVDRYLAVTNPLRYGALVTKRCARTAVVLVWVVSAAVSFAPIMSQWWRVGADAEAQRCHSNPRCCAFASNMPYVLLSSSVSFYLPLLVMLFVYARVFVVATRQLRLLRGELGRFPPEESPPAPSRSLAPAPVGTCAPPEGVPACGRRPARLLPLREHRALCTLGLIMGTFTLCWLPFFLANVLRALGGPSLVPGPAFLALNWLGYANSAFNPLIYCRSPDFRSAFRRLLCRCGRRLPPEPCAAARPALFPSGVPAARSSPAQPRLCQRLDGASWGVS
Experimental readout: AC50

Req: For the molecule shown here, N[C@H](Cc1cc(I)c(Oc2cc(I)c(O)c(I)c2)c(I)c1)C(=O)O [DEXTROTHYROXINE] , give the reported AC50.
Resp: > 30 µM

###

Let's go through some AC50 measurements on Motilin receptor (Homo sapiens, UniProt O43193) together.
Sequence (O43193 whole entry): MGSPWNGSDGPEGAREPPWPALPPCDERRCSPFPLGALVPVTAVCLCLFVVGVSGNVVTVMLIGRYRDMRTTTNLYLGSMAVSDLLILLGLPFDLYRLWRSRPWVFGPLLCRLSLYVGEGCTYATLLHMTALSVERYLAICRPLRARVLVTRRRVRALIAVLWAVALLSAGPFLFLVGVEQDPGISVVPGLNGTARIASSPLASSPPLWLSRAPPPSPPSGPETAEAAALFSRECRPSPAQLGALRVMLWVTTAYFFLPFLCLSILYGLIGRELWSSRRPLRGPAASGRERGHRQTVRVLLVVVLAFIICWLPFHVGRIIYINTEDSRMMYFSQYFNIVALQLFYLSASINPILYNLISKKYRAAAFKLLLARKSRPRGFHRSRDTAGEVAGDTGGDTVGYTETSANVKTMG

Example compounds with recorded AC50:
CCn1cc(C(=O)O)c(=O)c2cc(F)c(N3CCN(C)CC3)cc21 [PEFLOXACIN]	> 30 µM
CC(C)CC(N(C)C)C1(c2ccc(Cl)cc2)CCC1 (configuration not stated) [SIBUTRAMINE]	> 10 µM
CN1[C@@H]2CC[C@H]1C[C@@H](OC(=O)c1c[nH]c3ccccc13)C2 [TROPISETRON]	> 30 µM

Please turn your attention to the following entry.
Req: What AC50 appears in the records for this compound with Motilin receptor (Homo sapiens, UniProt O43193)? CCC(=O)OCC(=O)[C@@]1(OC(=O)CC)[C@@H](C)C[C@H]2[C@@H]3CCC4=CC(=O)C=C[C@]4(C)[C@@]3(F)[C@@H](O)C[C@@]21C [BETAMETHASONE DIPROPIONATE]
Resp: > 30 µM
